In this section we review reported Percentage inhibition of ligand binding, Adrenergic α2A (0.1 μM) values for a set of compounds.
Molecular target: Human adrenergic α2A receptor (Homo sapiens, UniProt P08913)
Sequence (P08913 whole entry): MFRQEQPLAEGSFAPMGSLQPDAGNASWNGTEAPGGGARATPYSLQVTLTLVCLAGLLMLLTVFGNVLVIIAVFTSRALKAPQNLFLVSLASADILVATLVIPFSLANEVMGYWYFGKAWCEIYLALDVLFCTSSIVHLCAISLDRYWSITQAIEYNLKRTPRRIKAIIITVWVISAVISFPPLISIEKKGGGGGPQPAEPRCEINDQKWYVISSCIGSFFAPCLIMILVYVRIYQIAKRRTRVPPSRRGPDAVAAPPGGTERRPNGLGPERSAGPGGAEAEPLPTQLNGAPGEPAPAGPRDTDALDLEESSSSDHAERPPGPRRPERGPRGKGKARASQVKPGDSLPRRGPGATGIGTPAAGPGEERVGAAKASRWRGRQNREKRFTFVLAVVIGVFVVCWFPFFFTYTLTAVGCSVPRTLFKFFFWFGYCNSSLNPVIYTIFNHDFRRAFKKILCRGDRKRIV
Experiment: Radioligand binding, adrenergic α2A (Protocol Group B)
Set-up: purchased Milipore (Millipore)
Conditions: 0.1 μM compound; Protocol Group B; 0.1 µM
measured_endpoint: Percentage inhibition of ligand binding, Adrenergic α2A (0.1 μM) (%)

compound="OC(Cn1c2c(c3cc(Cl)cc(F)c31)C1CCCN1CC2)c1ccncc1 (single isomer, unassigned) [135b]" unit_symbol=% recorded_number=79
compound="Cc1cc(F)c2c(c1)c1c(n2CC(C)(O)c2ccncc2)CCN2CCCC12 (single isomer, unassigned) [81d]" unit_symbol=% recorded_number=11
compound="Cc1ccc2c(c1)c1c(n2CC(C)(O)c2cncc(F)c2)CCN(C)C1 (single isomer, unassigned) [46b]" unit_symbol=% recorded_number=−1
compound="CC(O)(Cn1c2c(c3cc(F)cc(Cl)c31)C1CCCN1CC2)c1cccnc1 (single isomer, unassigned) [89a]" unit_symbol=% recorded_number=23
compound="Cc1cc(F)cc2c3c(n(CC(C)(O)c4ccncc4)c12)CC1CCCN1C3 (single isomer, unassigned) [78c]" unit_symbol=% recorded_number=3
compound="OC(Cn1c2c(c3cc(Cl)ccc31)C1CCCN1CC2)c1ccncc1 (single isomer, unassigned) [143d]" unit_symbol=% recorded_number=7
compound="OC(Cn1c2c(c3cc(F)cc(F)c31)C1CCCN1CC2)c1ccncc1 (single isomer, unassigned) [144c]" unit_symbol=% recorded_number=1
compound="Cc1cc(Cl)c2c(c1)c1c(n2CC(O)c2ccncc2)CCN2CCCC12 (single isomer, unassigned) [142b]" unit_symbol=% recorded_number=95
compound="CC(O)(Cn1c2c(c3cc(F)ccc31)C1CCCN1CC2)c1ccncc1 (single isomer, unassigned) [31d]" unit_symbol=% recorded_number=−11
compound="Cc1cc(F)cc2c3c(n(CC(C)(O)c4cccnc4)c12)CC1CCCN1C3 (single isomer, unassigned) [76b]" unit_symbol=% recorded_number=5
compound="CCCOC(Cn1c2c(c3cc(C)ccc31)CN(C)CC2)c1ccncc1 (single isomer, unassigned) [42b]" unit_symbol=% recorded_number=32
compound="CC(O)(Cn1c2c(c3cc(Cl)cc(F)c31)CN1CCCC1C2)c1ccncc1 (single isomer, unassigned) [86a]" unit_symbol=% recorded_number=−4
compound="Cc1ccc2c(c1)c1c(n2CC(C)(O)c2cccnc2)CC(CO)N(C)C1 (single isomer, unassigned) [15b]" unit_symbol=% recorded_number=1
compound="Cc1ccc2c(c1)c1c(n2CC(C)(O)c2cccnc2)CCN(C)C1CO (single isomer, unassigned) [16b]" unit_symbol=% recorded_number=−2
compound="Cc1cc(F)c2c(c1)c1c(n2CC(O)c2ccncc2)CCN2CCCC12 (single isomer, unassigned) [137d]" unit_symbol=% recorded_number=15
compound="Cc1ccc2c(c1)c1c(n2CC(C)(O)c2cccnc2)CC2CCCN2C1 (stereo not drawn) [38a]" unit_symbol=% recorded_number=−2
compound="Cc1ccc2c(c1)c1c(n2CC(O)c2ccncc2)CNC2CCCC12 (single isomer, unassigned) [34a]" unit_symbol=% recorded_number=−9
compound="Cc1ccc2c(c1)c1c(n2CC(C)(O)c2cccnc2)CC2CCC1N2C (single isomer, unassigned) [101c]" unit_symbol=% recorded_number=6
compound="CC(O)(Cn1c2c(c3cc(Cl)cc(F)c31)C1CCCN1CC2)c1cccnc1 (single isomer, unassigned) [53d]" unit_symbol=% recorded_number=0
compound="Cc1ccc2c(c1)c1c(n2CC(C)(O)c2cccnc2)CC(CO)N(C)C1 (single isomer, unassigned) [15a]" unit_symbol=% recorded_number=14
compound="Cc1ccc2c(c1)c1c(n2CC(O)c2cccnc2)CC2CCCN2C1 (single isomer, unassigned) [27a]" unit_symbol=% recorded_number=3
compound="Cc1cc(F)cc2c3c(n(CC(O)c4ccncc4)c12)CCN1CCCC31 (single isomer, unassigned) [136d]" unit_symbol=% recorded_number=−12
compound="Cc1ccc2c(c1)c1c(n2CC(OC(N)=O)c2ccncc2)CCN(C)C1 (single isomer, unassigned) [8b]" unit_symbol=% recorded_number=7
compound="CC(O)(Cn1c2c(c3cc(C(F)(F)F)ccc31)C1CCCN1CC2)c1cccnc1 (single isomer, unassigned) [64a]" unit_symbol=% recorded_number=37
compound="OC(Cn1c2c(c3cc(F)ccc31)C1CCCN1CC2)c1ccncc1 (single isomer, unassigned) [18d]" unit_symbol=% recorded_number=8
compound="OC(Cn1c2c(c3cc(F)ccc31)C1CCCN1CC2)c1ccncc1 (stereo not drawn) [compound 18]" unit_symbol=% recorded_number=12
compound="Cc1ccc2c(c1)c1c(n2CC(C)(O)c2cnc3ccccc3c2)CCN(C)C1 (stereo not drawn) [compound 32]" unit_symbol=% recorded_number=5
compound="Cc1cc(F)c2c(c1)c1c(n2CC(C)(O)c2cccnc2)CC2CCCN2C1 (single isomer, unassigned) [61b]" unit_symbol=% recorded_number=6
compound="OC(Cn1c2c(c3cc(Cl)ccc31)C1CCCN1CC2)c1ccncc1 (single isomer, unassigned) [143c]" unit_symbol=% recorded_number=1
compound="Cc1ccc2c(c1)c1c(n2CC(C)(O)c2cccnc2)CC2CCCN2C1 (stereo not drawn) [41a]" unit_symbol=% recorded_number=−7
